The sequences listed here are annotated with their Normalized average relative binding affinity(ARB).
# assay_system: HLA A*3201 (Homo sapiens, UniProt P04439, A270S/D101S/D185E/E176V/E277Q/F133L/G103R/G107R/G231S/H175R/I121M/I218V/I322F/K168Q/L105A/L300P/L318F/M331R/P208A/P217A/Q94H/R106L/R138Q/S129P/T104I/T323A/T345S/V100E/V321M/V358M)
# assay_name: biochemical
# Type: binding

Consider the reported Normalized average relative binding affinity(ARB) for these sequences:
construct_sequence="XXXXXXIXX [3064.0128]" value=0.094
construct_sequence="XXXXXXEXX [3064.0124]" value=0.092
construct_sequence="XXXXXXXWX [3064.0159]" value=0.089
construct_sequence="XXXXXWXXX [3064.0119]" value=0.26
construct_sequence="XXXXXXHXX [3064.0127]" value=0.33

(Q) Would you mind telling me what Normalized average relative binding affinity(ARB) value was observed for XXXXXDXXX [3064.0103] ?
(A) 0.16

(Q) If you can, please state the reported Normalized average relative binding affinity(ARB) value of XXXXEXXXX [3064.0084] .
(A) 0.066

(Q) GET /values?readout=Normalized average relative binding affinity(ARB)&item= XXXXXXXMX [3064.0151]
(A) 0.52

(Q) Entry XXXXXLXXX [3064.0110] : reported Normalized average relative binding affinity(ARB) = ?
(A) 0.33

(Q) So what's the measured Normalized average relative binding affinity(ARB) for this one? XXXQXXXXX [3064.0074]
(A) 0.32

(Q) I am curious: what Normalized average relative binding affinity(ARB) value has been reported for XXXXXXXLX [3064.0150] ?
(A) 0.29

(Q) Report Normalized average relative binding affinity(ARB) for XXXXGXXXX [3064.0086] please.
(A) 0.31

(Q) What does the data say about its Normalized average relative binding affinity(ARB)? Entry: XXXXXXXRX [3064.0155]
(A) 0.26

(Q) Consider the sequence XXXXXMXXX [3064.0111] and give its measured Normalized average relative binding affinity(ARB).
(A) 0.44

(Q) State the recorded Normalized average relative binding affinity(ARB) for this entry: XXXXNXXXX [3064.0092]
(A) 0.16

(Q) Return reported Normalized average relative binding affinity(ARB); argument: XXXXXRXXX [3064.0115]
(A) 0.36

* * *

# assay_system: HLA B*1503 (Homo sapiens, UniProt P01889, A329T/A93T/A95T/C349S/D201E/D98Y/E187L/E204Q/K202T/N87E/Q94N/R155S/R180L/S121R/S35A/V306I/V36M/Y140S/Y91S)
# assay_name: biochemical
Where a SMILES comes first, the peptide text is derived from it.
quantity_kind: pIC50
Kindly note that pIC50 refers to -log10 of the concentration in mol/L and answer with the value alone.

Here are 3 molecules together with their reported answers.
molecule="CC[C@H](C)[C@H](NC(=O)[C@H](CO)NC(=O)[C@H](C)NC(=O)[C@H](Cc1ccccc1)NC(=O)[C@H](CO)NC(=O)CNC(=O)[C@H](CO)NC(=O)[C@@H](N)Cc1ccccc1)C(=O)N[C@@H](Cc1ccccc1)C(=O)O [3102.1222] (H-FSGSFASIF-OH)" value=9.49
molecule="CC(C)C[C@H](NC(=O)[C@H](C)N)C(=O)N[C@@H](CCCNC(=N)N)C(=O)N1CCC[C@H]1C(=O)N[C@@H](CO)C(=O)N[C@@H](CO)C(=O)N[C@@H](CCC(N)=O)C(=O)N[C@H](C(=O)N[C@@H](Cc1ccccc1)C(=O)O)C(C)C [3102.1320] (H-ALRPSSQVF-OH)" value=10.02
molecule="CSCC[C@H](NC(=O)[C@H](Cc1ccc(O)cc1)NC(=O)[C@H](CCCCN)NC(=O)[C@H](CO)NC(=O)[C@H](Cc1ccccc1)NC(=O)[C@H](C)NC(=O)[C@@H](N)Cc1ccc(O)cc1)C(=O)N[C@@H](CO)C(=O)N[C@@H](Cc1ccccc1)C(=O)O [3102.1180] (H-YAFSKYMSF-OH)" value=8.74

# context switch: different molecule, same pIC50
(Q) Name the recorded pIC50 for CC[C@H](C)[C@H](NC(=O)[C@H](CC(N)=O)NC(=O)[C@H](CC(C)C)NC(=O)[C@H](Cc1ccccc1)NC(=O)[C@H](CC(C)C)NC(=O)[C@@H](N)Cc1ccccc1)C(=O)N[C@@H](CC(N)=O)C(=O)N[C@@H](Cc1c[nH]cn1)C(=O)N[C@@H](Cc1ccc(O)cc1)C(=O)O [3102.1309] (H-FLFLNINHY-OH) .
(A) 8.19

* * *

Normalized average relative binding affinity(ARB) values by entry
# assay_system: HLA B*3501 (Homo sapiens, UniProt P01889, A329T/A93T/A95T/C349S/D201E/D98Y/E176V/E187L/E204Q/E69T/I218V/K202T/L119I/Q94N/R155S/R180L/S121R/S35A/S48A/T118I/V127L/V306I/V36M/Y140S/Y91F)
# Format: binding
Hey, just send me the number, nothing else.

Below: 10 sequences and their reported Normalized average relative binding affinity(ARB).
construct_sequence="XXXXAXXXX [3064.0081]" value=0.57
construct_sequence="XXXXXXGXX [3064.0126]" value=0.12
construct_sequence="XXXXYXXXX [3064.0100]" value=0.22
construct_sequence="XXXXXXRXX [3064.0135]" value=0.16
construct_sequence="XXXXHXXXX [3064.0087]" value=0.19
construct_sequence="XXXXCXXXX [3064.0082]" value=0.37
construct_sequence="XXXXXXXDX [3064.0143]" value=0.073
construct_sequence="XXXXXXVXX [3064.0138]" value=0.57
construct_sequence="XXXXIXXXX [3064.0088]" value=0.26
construct_sequence="XXXXRXXXX [3064.0095]" value=0.23

(Q) I would be grateful if you could share the reported Normalized average relative binding affinity(ARB) for XXXXQXXXX [3064.0094] .
(A) 0.28

(Q) Look at this sequence and give its reported Normalized average relative binding affinity(ARB). XXXXXXXEX [3064.0144]
(A) 0.098

* * *

# assay_system: HLA A*3001 (Homo sapiens, UniProt P04439, D140H/D185E/E176W/F33S/G80R/H175R/K168Q/R138E/R41S)
# assay_name: biochemical
# Format: binding
Where a SMILES comes first, the peptide text is derived from it.
Overview of reported IC50 across a group of molecules:
Field: numeric (nM). Do not append units.

molecule="CC[C@H](C)[C@H](NC(=O)[C@H](C)NC(=O)[C@H](CO)NC(=O)[C@@H](NC(=O)[C@H](CO)NC(=O)[C@@H](NC(=O)[C@@H](N)CCCNC(=N)N)C(C)C)C(C)C)C(=O)N[C@@H](CC(C)C)C(=O)N[C@@H](CC(C)C)C(=O)O [3102.0061] (H-RVSVSAILL-OH)" value=15

As a next step, examine the molecule that follows.
(Q) Which value of IC50 has been reported for CSCC[C@H](N)C(=O)N[C@H](C(=O)N[C@@H](CCCNC(=N)N)C(=O)N[C@@H](CC(C)C)C(=O)N1CCC[C@H]1C(=O)N[C@@H](Cc1ccc(O)cc1)C(=O)N[C@@H](CCCCN)C(=O)N[C@@H](CC(=O)O)C(=O)N[C@@H](C)C(=O)O)C(C)C [3102.0149] (H-MVRLPYKDA-OH) in the records?
(A) 0.76

* * *

# assay_system: HLA B*0702 (Homo sapiens)
# Type: binding
# stated_conditions: positional scanning combinatorial 9-mer library; normalized to 1.0 for the best residue at each position
Okay, here is how we bin by Normalized average relative binding affinity (ARB), HLA B*0702: low class: < 0.03; middle class: ≥ 0.03 and < 0.2; high class: ≥ 0.2

(Q) Which Normalized average relative binding affinity (ARB), HLA B*0702 band matches XFXXXXXXX [3064.0025] ?
(A) low class

(Q) Sort QXXXXXXXX [3064.0014] into one of the categories.
(A) middle class

(Q) Which Normalized average relative binding affinity (ARB), HLA B*0702 category applies to LXXXXXXXX [3064.0010] here?
(A) high class

(Q) Field: class (Normalized average relative binding affinity (ARB), HLA B*0702) — entry: AXXXXXXXX [3064.0001]
(A) high class

(Q) Lab note: which band did XXLXXXXXX [3064.0050] land in?
(A) middle class

(Q) Note: place this sequence into its band. Item: XTXXXXXXX [3064.0037]
(A) low class

(Q) Which class does KXXXXXXXX [3064.0009] fall in?
(A) high class

(Q) Hi, small favor: classify VXXXXXXXX [3064.0018] by its Normalized average relative binding affinity (ARB), HLA B*0702 when you get a moment.
(A) middle class

(Q) Bin this entry: XPXXXXXXX [3064.0033]
(A) high class
